Attribution: patent US20210395344A1

# assayed-system: T1, SARS-CoV-2 Spike Glycoprotein S1 (subunit 1) (SARS-CoV-2, UniProt P0DTC2 16-685)
# T1 construct: also called S1 Monomer; SARS-CoV-2 S1
# assay-notes: screening phage ELISA, mean

binder	ELISA (Avg)
1-28 (antibody, V domains shown) VH: EVQLLESGGGLVQPGGSLRLSCAASGFTFSSYGMSWVRQAPGKGLEWVSAISGSGGGTYYADSVKGRFTISRDNSKNTLYLQMNSLRAEDTAVYYCASSSSWQFDYWGQGTLVTVSS VL: QSALTQPASVSGSPGQSITISCTGTSSGVGSYNLVSWYQQHPGKAPKLMIYEGSQRPSGVSNRFSGSKSGNTASLTISGLQAEDEADYYCCSYAGSSTHYVFGGGTKLTVL	17.7
1-23 (antibody, V domains shown) VH: EVQLLESGGGLVQPGGSLRLSCAASGFTFSSYAISWVRQAPGKGLEWVSIISGSGGSTYYADSVKGRFTISRDNSKNTLYLQMNSLRAEDTAVYYCAREGYRDYLWYFDLWGQGTLVTVSS VL: QSALTQPASVSGSPGQSITISCTGTSNDVGSYNLVSWYQQHPGKAPKLMIYEGNKRPSGVSNRFSGSKSGNTASLTISGLQAEDEADYYCCSYAGSYTVFGGGTKLTVL	23.1
1-26 (antibody, V domains shown) VH: EVQLLESGGGLVQPGGSLRLSCAASGFTFSSYAISWVRQAPGKGLEWVSAISGSGYSTYYADSVKGRFTISRDNSKNTLYLQMNSLRAEDTAVYYCARGAPDSSGYYFQGEVYFDYWGQGTLVTVSS VL: QSALTQPASVSGSPGQSITISCTGTSSDVGGYNLVSWYQQHPGKAPKLMIYEGTKRPSGVSNRFSGSKSGNTASLTISGLQAEDEADYYCCSFVRSSAHVVFGGGTKLTVL	19.5
